# Tested on: U937
# ASSAY TEXT: MTT cell viability assay, Experiment 3
# Format: cell-based
# SETTINGS: Homo sapiens, U-937; MTT, Mean ± S.E.M, two independent experiments; read-out: IC50 cell viability, Non-CML leukemia cells U937
QUANTITY NAME: IC50 (nM)

1) Cc1ccc(C(=O)Nc2ccc3c(c2)C(F)(F)CC3N2CCN(C)CC2)cc1C#Cc1cnc(NC2CC2)nc1 (racemic)	191

P. Cc1ccc(C(=O)Nc2ccc3c(c2)C(F)(F)C[C@@H]3N2CCN(C)CC2)cc1C#Cc1cnc(NC2CC2)nc1 [37-(S)]
Q. CN1CCN(C2CC(F)(F)c3cc(NC(=O)c4ccc(F)c(C#Cc5cnc6cccnn56)c4)ccc32)CC1 (racemic)
Hi! Which is lower in terms of IC50, the first one P or the second one Q ? When you have decided, please share the label of that item.
P
(P: 165 nM, Q: 810 nM)

From: patent US9174996B2
